# System: JAK2(JH1domain-catalytic)
# study_conditions: concentration: 1 μM, replicates: in singlicate; n = 1;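 further: KINOMEscan kinase panel screen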
Give measured %Inh for each item. Keep answers brief.
Write the value in % as a bare number.

Per the record, COc1cc(Nc2ccnc3ccc(C(F)(F)F)cc23)cc(OC)c1OC has %Inh of 9

Per the record, Cc1cc(Nc2nc(-c3cccc(C)n3)nc3ccccc23)ccn1 has %Inh of 0

Per the record, COc1cc2ncn(-c3cc(OCc4ccncc4Br)c(C(N)=O)s3)c2cc1OC has %Inh of 0

Per the record, CCCNC(=O)Nc1ccc(Oc2ncnc3ccn(C)c23)cc1 has %Inh of 1

Per the record, COc1cc2nccc(Nc3cccc(Oc4ccccc4)c3)c2cc1OC.Cl has %Inh of 0

Per the record, O=C(NCc1cccs1)c1cc(C(=O)c2c(Cl)cccc2Cl)c[nH]1 has %Inh of 0

Per the record, CN1C(=O)C(Nc2ccccc2)=C(c2ccccc2)C1=O has %Inh of 42

Per the record, Cc1cccc(-c2cc(-c3c[nH]nc3-c3ccccn3)ccn2)c1 has %Inh of 8

Per the record, CCC(=O)c1c(-c2ccccc2)c2cc(Cl)ccc2c(=O)n1Cc1cc(C(=O)NC2CC2)n(C)n1 has %Inh of 0

====

Give measured %Inh for each item. Keep answers brief.
# Test system: TSSK3
# study_conditions: concentration: 1 μM, replicates: in singlicate; n = 1
Write the value in % as a bare number.

Per the record, CCS(=O)c1ccc(-c2coc3ccc(-c4nnc(C)o4)cc23)cc1 (stereo not drawn) has %Inh of 0

Per the record, COc1cc2nccc(Nc3cccc(Oc4ccccc4)c3)c2cc1OC.Cl has %Inh of 13

Per the record, Cc1nn2c(=O)cc(N3CCOCC3)nc2n1Cc1cccc(Cl)c1Cl has %Inh of 6

Per the record, COc1ccc(CNC(=O)NC2CCN(c3ccnc(Nc4ccc(F)cc4)n3)C2)cc1 (stereo not drawn) has %Inh of 21

Per the record, COc1cc(Nc2ccnc3ccc(C(F)(F)F)cc23)cc(OC)c1OC has %Inh of 13

Per the record, CN1C(=O)C(Nc2ccccc2)=C(c2ccccc2)C1=O has %Inh of 0

Per the record, CCS(=O)(=O)c1ccc(OC)c(Nc2ncc(-c3ccc(F)cc3)o2)c1.Cl has %Inh of 13

Per the record, COc1cc2ncn(-c3cc(OCc4ccncc4)c(C(N)=O)s3)c2cc1OC has %Inh of 11

Per the record, COC(=O)c1c(-c2ccccc2)c2cc(Br)ccc2c(=O)n1Cc1ccc(NC(=O)CCC(=O)O)cc1 has %Inh of 0

====

# System: EPHA4
# study_conditions: concentration: 1 μM, replicates: in singlicate; n = 1
readout_name: %Inh (%)
Write the value in % as a bare number.

Per the record, Fc1cccc(CSc2nnc(-c3ccc4c(c3)CCO4)o2)c1 has %Inh of 0

Per the record, COc1cc(Nc2nccc(N3CCC(NC(=O)C(C)c4ccc(Cl)cc4)C3)n2)cc(OC)c1OC (stereo not drawn) has %Inh of 22

Per the record, COc1ccc(CNC(=O)NC2CCN(c3ccnc(Nc4ccc(F)cc4)n3)C2)cc1 (stereo not drawn) has %Inh of 8

Per the record, CN1C(=O)C(Nc2cc(Cl)c(O)c(Cl)c2)=C(c2ccc(Cl)cc2)C1=O has %Inh of 0

Per the record, FC(F)(F)c1ccc(-c2ncn(CCCN3CCOCC3)c2-c2ccncc2)cc1 has %Inh of 12

Per the record, Cl.NS(=O)(=O)c1cccc(Nc2cc(-c3ccc(F)cc3)n[nH]2)c1 has %Inh of 0

Per the record, Cn1c(=O)c(F)c(Nc2ccc(I)cc2F)c2c(=O)n(OC[C@H](O)CO)cnc21 has %Inh of 16

Per the record, CCC(=O)c1c(-c2ccccc2)c2cc(Cl)ccc2c(=O)n1Cc1cc(C(=O)NC2CC2)n(C)n1 has %Inh of 26

Per the record, Nc1n[nH]c2nnc(-c3ccccc3)c(-c3ccccc3)c12 has %Inh of 12

Source of measurements: paper PMC5540273
